In this section, each of the molecules is paired with its reported growth inhibition.
protocol.notes: NCI Yeast Anticancer Drug Screen. Data for the cln2 rad14 strain (AID 165);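 further: 0% = growth equal to vehicle treated cultures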
condition.parameters: S. cerevisiae cln2 rad14 strain, at 50.0 µM, hits give high values
About 79,000 compounds went through this panel and 15% of them were active in at least one assay; those are over-represented in the sample as a whole.
Report the value in % with no unit label.

Examples with their reported growth inhibition follow.
molecule | output.unit | growth inhibition
O=C(Nc1ccc(N(CCCl)CCCl)cc1)Oc1ccc(C(=O)O)cc1 | % | 9.3
COc1ccc([N+](=O)[O-])cc1N=Cc1ccc(N(CCCl)CCCl)cc1C | % | 18.6

Qu. Output growth inhibition of [Cl][Cd][Cl]
Ans. 35.5

Qu. State its growth inhibition: CCOP(=O)(OCC)C(N)Cc1ccc(OC)c(OC)c1 (stereo not given)
Ans. 19.9

----------
protocol.notes: NCI Yeast Anticancer Drug Screen. Data for the rad50 strain (AID 155);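 further: 0% = growth of vehicle-only cultures of the same strain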
condition.parameters: S. cerevisiae rad50 strain growth inhibition; at 50.0 µM; hits give high values
Compounds without any hit were thinned out: in the full panel of roughly 79,000, 15% have a hit.
In this section we review reported growth inhibition values for a set of molecules.
Answer in %, number only, no unit symbol.

molecule | output.unit | test.value
Cc1cc(-n2c(C)nc3ccccc3c2=O)on1 | % | -35.1

Qu. Let me know recorded growth inhibition for CC1([N+](=O)[O-])COP(=O)(NCc2ccccc2)OC1 (stereo unspecified) , thanks.
Ans. 11.9

Qu. Supply recorded growth inhibition for CC(C)CC(=O)[O-].N.N.N.N.N.[Co+3].[O-][Cl+3]([O-])([O-])[O-] here.
Ans. -4.85

Qu. Tell me measured growth inhibition for CC12CCC3C(CCC4(O)C=CCCC34C=O)C1(O)CC(O)C2c1ccc(=O)oc1 (stereo unspecified) please.
Ans. -28.1

Qu. Supply growth inhibition value. Item: C[C@]12CCC(=O)N[C@@H]1CC[C@@H]1[C@@H]2CC[C@]2(C)[C@@H](OC(=O)COc3ccc(N(CCCl)CCCl)cc3)CC[C@@H]12
Ans. 0.45

Qu. Give a short answer stating reported growth inhibition for COC1OC2COC(c3ccccc3)OC2C2N=C(N)N([N+](=O)[O-])C12OS(C)(=O)=O (stereo unspecified) .
Ans. -4.8

Qu. Return value of growth inhibition for input CC(C)c1ccccc1OP(=S)(S)Oc1ccccc1C(C)C , no commentary.
Ans. 82.8

Qu. Supply recorded growth inhibition for S=C=NC/C(Cl)=C/Cl here.
Ans. 71.9

Qu. Determine from records and report growth inhibition for O=C(O)C(Br)C(Br)C(=O)O.[Ag] (stereo unspecified)
Ans. 98.8

Qu. Assign growth inhibition to the following record: ClC1=C(Cl)C2(Cl)C3C(C4(Cl)C(Cl)=C(Cl)C3(Cl)C4(Cl)Cl)C2(Cl)C1(Cl)Cl (stereo unspecified)
Ans. -1.7

Qu. Specify reported growth inhibition for the molecule shown: CC1(C)N=C(NN=C2CCCCC2)SP1(=O)NNc1ncccn1 (stereo unspecified)
Ans. 30.1

Qu. Write down growth inhibition measured for item O=C(CC([Se]c1ccccc1)c1ccccc1)c1ccccc1 (stereo unspecified)
Ans. 98

Qu. Answer with the recorded growth inhibition of CC(=O)c1ccc(-[n+]2c(C)cc(-c3ccccc3)cc2C)cc1 only.
Ans. -15.4

Qu. Return value of growth inhibition for input CCC1CC[N-]CC1.CCC1CC[N-]CC1.[Cl][Pt+2][Cl] , no commentary.
Ans. -0.95

Qu. Report growth inhibition, nothing else, for this molecule: C[N+](C)(C)CC1CCCC(C[N+](C)(C)C)C1O (stereo unspecified)
Ans. 92.3

Qu. Return growth inhibition for the following molecule: CO[As](OC)c1ccc(N=Nc2ccc(N(C)C)cc2)cc1
Ans. 98.4

----------
protocol.notes: NCI Yeast Anticancer Drug Screen. Data for the bub3 strain (AID 167)
condition.parameters: S. cerevisiae bub3 mutant strain, at 50.0 µM (retest, dose inferred, filed as 5.0), hits give high values
Description: Growth inhibition of yeast strains with defined genetic alterations is measured as a screen for potential anti-cancer activity. Selected strains with alterations in DNA damage repair or cell cycle control were exposed to compounds and growth inhibition was measured relative to vehicle treated controls. The strain used in this assay is bub3
About 79,000 compounds went through this panel and 15% of them were active in at least one assay; those are over-represented in the sample as a whole.
growth inhibition reference
Write it as a number; the unit % goes unstated.

molecule | growth inhibition, %
Oc1c(Cl)c(Cl)c(O)c(Cl)c1Cl | 97
O=C([CH-]C(=O)c1ccccc1)c1ccccc1.O=C([CH-]C(=O)c1ccccc1)c1ccccc1.O=C([CH-]C(=O)c1ccccc1)c1ccccc1.[Cl-].[Hf+4] | 95
CCC[CH2][Sn]([CH2]CCC)[S]CC(N)C(=O)O (stereo not given) | 99
CCC[CH2][Sn]1([CH2]CCC)[O]CC(C)[O]1 (stereo not given) | 97
Nc1nc(N)c(-c2ccc(Cl)c(Cl)c2)c(COc2cccc(CNS(=O)(=O)c3ccc(S(=O)(=O)F)cc3)c2)n1 | 68

Qu. Look up and report measured growth inhibition for this entry: S=c1[nH]c2ccccc2s1.[Pb]
Ans. -7

Qu. Determine from records and report growth inhibition for Oc1c(Cl)cc(Cl)c2ccccc12
Ans. 44

Qu. Identify measured growth inhibition associated with CNP(=O)(Oc1cc(Cl)c(Cl)cc1Cl)N1CCN(c2ccccc2)CC1 (stereo not given)
Ans. 86

Qu. Given the molecule ClCCN(CCCl)c1ccc(C2N(Cc3ccc(Cl)cc3)CCN2Cc2ccc(Cl)cc2)cc1 , write its reported growth inhibition.
Ans. 71

Qu. Give the reported growth inhibition for this molecule. O=[N+]([O-])/C=C\C(Cl)(Cl)Cl
Ans. 99

----------
# growth inhibition per entry
protocol.notes: NCI Yeast Anticancer Drug Screen. Data for the sgs1 mgt1 strain (AID 161);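 further: 0% = growth of cultures given vehicle only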
condition.parameters: S. cerevisiae sgs1 mgt1 strain, at 50.0 µM (retest, dose inferred, filed as 5.0), hits give high values
This is part of a sample that, as a whole, favours compounds with a hit. Of some 79,000 tested, about 15% had one in any assay.
// note: answer is a bare numeric in %

Completed entries (count: 3):
compound | growth inhibition [%]
O=C([CH-]C(=O)c1ccccc1)c1ccccc1.O=C([CH-]C(=O)c1ccccc1)c1ccccc1.[La+3].[OH-].[OH3+] | 27
Cc1cc(N(CCCl)CCCl)ccc1C=Nc1ccc(-c2csc(Cc3ccccc3)n2)c(Cl)c1 | 97
COc1ccc(O)c(/C=C/[N+](=O)[O-])c1 | 99

Field: next compound
Qu. Give growth inhibition for the following compound: CC12CCC3C(CC=C4CC(SC(=N)N)CCC43C)C1CCC2=O (centres undefined)
Ans. 72

----------
protocol.notes: NCI Yeast Anticancer Drug Screen. Data for the bub3 strain (AID 167)
condition.parameters: S. cerevisiae bub3 mutant strain, at 50.0 µM
This is part of a sample that, as a whole, favours compounds with a hit. Of some 79,000 tested, about 15% had one in any assay. Active and inactive are the calls of the source. Rule as the data show it: active = growth inhibition above about 70%; inactive = the rest.
Respond using exactly one of the listed classes: active, inactive

The following compounds have reported results that may help.
compound | qualitative.label
CCOC(=O)/C=C1\Nc2ccccc2C(c2ccccc2)=NC1OC(C)=O (stereo unspecified) | inactive
CC(C)NC(C)C(C)c1ccccc1 (stereo unspecified) | inactive
[CH3][Sn]([CH3])([CH3])[O]C(=O)C(O)c1ccccc1 (stereo unspecified) | inactive
N#C[S-].[Ce+3].c1cnc2c(c1)ccc1cccnc12.c1cnc2c(c1)ccc1cccnc12.c1cnc2c(c1)ccc1cccnc12 | active

Moving on to another compound below.
Qu. What outcome does the record of this test show for O=[N+]([O-])/C=C\C(Cl)(Cl)Cl ?
Ans. active

----------
protocol.notes: NCI Yeast Anticancer Drug Screen. Data for the bub3 strain (AID 167)
condition.parameters: S. cerevisiae bub3 mutant strain, at 50.0 µM (retest, dose inferred, filed as 5.0), hits give high values
This is part of a sample that, as a whole, favours compounds with a hit. Of some 79,000 tested, about 15% had one in any assay.
Think of 60% as a floor: if growth inhibition stands on it or above, it is 1; beneath it, -1.

Qu. Please check the record CC(C)NC1CC2CCCCC2CC1c1ccccc1 (stereo not given) and state if its growth inhibition is at or above 60%.
Ans. -1

Qu. Check this molecule for growth inhibition at or above 60%: C#CC[As+](c1ccccc1)(c1ccccc1)c1ccccc1
Ans. 1

Qu. Please tell me: is the molecule COC(CNS(=O)(=O)c1ccccc1)[CH2][Hg][O]C(C)=O (stereo not given) at or over 60% in terms of growth inhibition?
Ans. -1

Qu. Is it the case that O=[C-]c1ccccc1[C-]=O.[Pd+2].c1ccc([PH+](c2ccccc2)c2ccccc2)cc1.c1ccc([PH+](c2ccccc2)c2ccccc2)cc1 has growth inhibition reaching or exceeding 60%?
Ans. 1
